I'd be grateful if you could share measured self-cleavage kobs at 640 uM GlcN6P for these entries.
B1: glmS ribozyme (parent)
chain: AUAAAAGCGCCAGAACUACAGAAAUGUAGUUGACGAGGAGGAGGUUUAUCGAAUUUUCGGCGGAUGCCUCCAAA

Variants of: B1
Test: self-cleavage kobs at 640 uM GlcN6P; higher = faster cleavage; RNA array
Details: with glucosamine-6-phosphate
Variants at the floor of the assay were thinned out.

# input Which self-cleavage kobs at 640 uM GlcN6P value is on record for U45G U46G U55C G63A ?
# output < 1e-05 s⁻¹

# input Would you kindly share the measured self-cleavage kobs at 640 uM GlcN6P for C16U A33U U49A ?
# output < 1e-05 s⁻¹

# input Tell me the measured self-cleavage kobs at 640 uM GlcN6P of A6U G60A , please.
# output < 1e-05 s⁻¹

# input Would you kindly share the measured self-cleavage kobs at 640 uM GlcN6P for G13U A33C ?
# output < 1e-05 s⁻¹

# input # lookup: self-cleavage kobs at 640 uM GlcN6P of U46A C61G
# output < 1e-05 s⁻¹

# input Query (variant): U45G U56A ; field requested: self-cleavage kobs at 640 uM GlcN6P
# output 0.000848 s⁻¹

# input Fill blank: measured self-cleavage kobs at 640 uM GlcN6P of the variant G41U G59A is ____.
# output < 1e-05 s⁻¹

# input Quick one: self-cleavage kobs at 640 uM GlcN6P of G29A A53U C67A ?
# output 0.00017 s⁻¹

# input Would you mind telling me what self-cleavage kobs at 640 uM GlcN6P value was observed for C8U C34G A39G G44U ?
# output < 1e-05 s⁻¹

# input Given A6U G7U C10A G29A C34A C67G C68A C71U , state its recorded self-cleavage kobs at 640 uM GlcN6P.
# output 6.07e-05 s⁻¹

# input self-cleavage kobs at 640 uM GlcN6P for G37U G40A ?
# output < 1e-05 s⁻¹

# input State the recorded self-cleavage kobs at 640 uM GlcN6P for this entry: C8U A12C U49A
# output < 1e-05 s⁻¹

# input Requested field: self-cleavage kobs at 640 uM GlcN6P. Item: G9U G41C U47G
# output < 1e-05 s⁻¹

# input Which measured self-cleavage kobs at 640 uM GlcN6P value corresponds to U31C A39G ?
# output 0.00212 s⁻¹
